assay: Cyclic voltammetry of menadione derivatives; format: physicochemical; conditions: E½ = (Epc+Epa)/2; DMSO, 0.1 M n-Bu4NPF6, reference KCl(3 M)/Ag/AgCl; first wave

chemical string	E^1½ / V
COc1ccc(OCC2=C(C(F)F)C(=O)c3ccccc3C2=O)cc1C(F)(F)F	−0.271
CC1=C(COc2ccc(C(=O)O)cc2)C(=O)c2ccccc2C1=O	−0.580
CC1=C(COc2ccc(C#N)cc2)C(=O)c2ccccc2C1=O	−0.556
N#Cc1ccc(OCC2=C(C(F)F)C(=O)c3ccccc3C2=O)cc1	−0.329
COc1ccc(OCC2=C(C)C(=O)c3ccccc3C2=O)cc1C(F)(F)F	−0.563
